Data origin: patent US12447153B2

Biological target: ErbB2 with Exon 20 YVMA insertion (HER2-YVMA) (Homo sapiens (Human), UniProt P04626, INS775YVMA)
Sequence (P04626 other isoform, or with tags, fused parts or gaps ins YVMA behind 775): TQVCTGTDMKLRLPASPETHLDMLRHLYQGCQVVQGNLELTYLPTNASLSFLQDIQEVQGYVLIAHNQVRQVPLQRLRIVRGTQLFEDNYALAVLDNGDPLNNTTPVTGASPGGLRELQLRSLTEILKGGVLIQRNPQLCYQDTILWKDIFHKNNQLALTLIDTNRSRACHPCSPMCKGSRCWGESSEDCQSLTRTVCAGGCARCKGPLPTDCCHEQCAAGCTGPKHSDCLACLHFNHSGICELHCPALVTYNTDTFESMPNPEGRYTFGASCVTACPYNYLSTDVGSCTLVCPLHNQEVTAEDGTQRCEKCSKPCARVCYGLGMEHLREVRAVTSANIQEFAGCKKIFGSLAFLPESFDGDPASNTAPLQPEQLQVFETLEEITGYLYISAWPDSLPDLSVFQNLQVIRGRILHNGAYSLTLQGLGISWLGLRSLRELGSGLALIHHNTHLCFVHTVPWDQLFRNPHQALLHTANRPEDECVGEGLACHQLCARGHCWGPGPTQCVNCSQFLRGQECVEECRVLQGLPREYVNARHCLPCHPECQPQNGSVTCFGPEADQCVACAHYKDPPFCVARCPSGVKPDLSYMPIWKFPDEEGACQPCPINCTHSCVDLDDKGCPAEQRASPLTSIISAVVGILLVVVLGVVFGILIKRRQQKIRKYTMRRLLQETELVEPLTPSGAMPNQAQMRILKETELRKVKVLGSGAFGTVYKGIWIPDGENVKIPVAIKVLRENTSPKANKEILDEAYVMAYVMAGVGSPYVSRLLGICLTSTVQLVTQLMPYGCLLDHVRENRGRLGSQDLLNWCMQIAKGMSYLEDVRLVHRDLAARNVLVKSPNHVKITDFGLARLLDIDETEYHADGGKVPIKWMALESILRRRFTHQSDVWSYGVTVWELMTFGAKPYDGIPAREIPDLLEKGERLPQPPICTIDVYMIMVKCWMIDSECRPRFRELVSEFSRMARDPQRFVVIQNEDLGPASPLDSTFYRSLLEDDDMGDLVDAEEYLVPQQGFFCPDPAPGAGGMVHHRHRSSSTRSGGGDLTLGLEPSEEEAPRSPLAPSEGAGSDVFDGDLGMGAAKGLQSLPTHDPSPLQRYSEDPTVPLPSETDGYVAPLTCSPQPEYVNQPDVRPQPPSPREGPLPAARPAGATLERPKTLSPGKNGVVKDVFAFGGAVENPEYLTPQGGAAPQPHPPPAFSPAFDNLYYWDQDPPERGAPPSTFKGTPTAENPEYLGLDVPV
Test: Cellular Phosphorylation Assay, Assay 4 (constitutive ErbB2 phosphorylation, NIH 3T3 cells)
Assay type: cell-based
Details: ErbB2 YVMA phosphorylation
Category | rule: reported IC50 within range, see label 0 (below 0.02 µM), label 1 (0.02 µM to below 0.05 µM), label 2 (0.05 µM or more)

compound: C=CC(=O)N1C[C@@H](c2ccc3ncnc(Nc4cc(C)c(Oc5ccc6c(c5)ncn6C)cc4F)c3n2)C[C@@H]1C
group: label 0

compound: C=CC(=O)N1CC[C@H]2CN(c3ccc4ncnc(Nc5ccc(Oc6ccn7ncnc7c6)c(Cl)c5F)c4n3)C[C@H]21
group: label 0

compound: C=CC(=O)N1C[C@H]2CC[C@@H]1CN2c1ccc2ncnc(Nc3ccc(Oc4cnc5c(c4)ncn5C)c(C)c3F)c2n1
group: label 1

compound: C=CC(=O)N1CC[C@@H]2C[C@H]1CN2c1ccc2ncnc(Nc3ccc(Oc4ccc5c(c4)ncn5C)c(C)c3F)c2n1
group: label 0

compound: C=CC(=O)N1CCC(Oc2ccc3ncnc(Nc4ccc(Oc5ccc6cn(C)nc6c5)c(Cl)c4F)c3n2)CC1
group: label 2

compound: C=CC(=O)N1CCCN(c2nc3c(Nc4ccc(Oc5ccn6ncnc6c5)c(C)c4F)ncnc3cc2OC)CC1
group: label 1

compound: C=C(C)c1ccc2ncnc(Nc3ccc(Oc4ccc5c(c4)ncn5C)c(C)c3)c2n1
group: label 2

compound: C=CC(=O)N1CCCC[C@H](c2ccc3ncnc(Nc4ccc(Oc5ccc6c(c5)ncn6C)c(C)c4)c3n2)C1 (single isomer, unassigned)
group: label 0

compound: C=CC(=O)N1CCC(Sc2nc3c(Nc4ccc(Oc5ccc6c(c5)ncn6C)c(C)c4)ncnc3cc2OC)CC1
group: label 0

compound: CNC(=O)/C=C/c1ccc2ncnc(Nc3ccc(Oc4ccc5c(c4)ncn5C)c(C)c3)c2n1
group: label 2

compound: C=CC(=O)N1C2CC1CN(c1ccc3ncnc(Nc4cc(C)c(Oc5ccn6ncnc6c5)cc4F)c3n1)C2
group: label 1

compound: C=CC(=O)N1CCC(Sc2ccc3ncnc(Nc4ccc(Oc5ccc6c(c5)ncn6C)c(C)c4)c3n2)CC1
group: label 0

compound: CC#CC(=O)N1CCC[C@@H](c2ccc3ncnc(Nc4ccc(Oc5ccn6ncnc6c5)c(C)c4F)c3n2)CC1 (single isomer, unassigned) [Example 212]
group: label 2

---

Target: ErbB2 WT (Homo sapiens (Human), UniProt P04626)
Sequence (P04626 23-1255): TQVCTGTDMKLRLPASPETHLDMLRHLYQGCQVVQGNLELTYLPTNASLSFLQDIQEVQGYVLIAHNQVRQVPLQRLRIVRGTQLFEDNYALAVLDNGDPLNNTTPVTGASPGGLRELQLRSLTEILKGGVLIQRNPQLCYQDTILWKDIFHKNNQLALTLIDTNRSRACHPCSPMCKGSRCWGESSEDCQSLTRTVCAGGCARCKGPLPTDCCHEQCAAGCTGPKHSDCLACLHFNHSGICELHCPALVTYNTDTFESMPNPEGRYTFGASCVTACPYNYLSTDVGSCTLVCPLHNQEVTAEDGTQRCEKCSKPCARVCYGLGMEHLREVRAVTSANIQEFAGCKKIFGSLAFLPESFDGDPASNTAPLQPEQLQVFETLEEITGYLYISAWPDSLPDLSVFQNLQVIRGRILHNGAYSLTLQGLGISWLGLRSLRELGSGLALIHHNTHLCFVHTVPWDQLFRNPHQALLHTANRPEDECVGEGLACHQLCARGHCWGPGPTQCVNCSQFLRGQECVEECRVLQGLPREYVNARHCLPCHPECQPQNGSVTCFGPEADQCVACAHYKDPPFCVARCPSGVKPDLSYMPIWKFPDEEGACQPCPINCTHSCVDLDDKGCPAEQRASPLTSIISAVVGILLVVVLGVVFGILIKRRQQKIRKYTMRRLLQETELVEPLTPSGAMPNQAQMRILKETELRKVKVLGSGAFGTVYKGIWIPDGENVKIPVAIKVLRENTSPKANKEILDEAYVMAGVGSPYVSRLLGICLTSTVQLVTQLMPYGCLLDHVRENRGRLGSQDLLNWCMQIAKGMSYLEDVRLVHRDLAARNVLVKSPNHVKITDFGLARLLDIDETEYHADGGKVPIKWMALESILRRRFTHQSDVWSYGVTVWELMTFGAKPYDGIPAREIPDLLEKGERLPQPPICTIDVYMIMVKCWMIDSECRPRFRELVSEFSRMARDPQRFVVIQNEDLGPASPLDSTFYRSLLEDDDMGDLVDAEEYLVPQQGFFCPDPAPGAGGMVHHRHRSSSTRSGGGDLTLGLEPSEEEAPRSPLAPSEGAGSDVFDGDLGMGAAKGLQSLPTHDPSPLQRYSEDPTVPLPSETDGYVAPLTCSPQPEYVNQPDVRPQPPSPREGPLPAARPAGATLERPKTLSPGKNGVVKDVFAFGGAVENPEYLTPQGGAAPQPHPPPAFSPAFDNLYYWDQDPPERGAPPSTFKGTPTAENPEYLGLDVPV
Test: ErbB Enzyme Assay (HTRF KinEASE-TK), Assay 2
Type: biochemical
Settings: ErbB2 WT enzyme assay
pIC50: −log10 of the molar value.
Below is a list of entries, each paired with its recorded pIC50 value.
property-label: pIC50

compound: CC#CC(=O)N1C[C@@H]2CC[C@H]1CN2c1ccc2ncnc(Nc3ccc(Oc4ccn5ncnc5c4)c(C)c3F)c2n1 [Example 329]
number: 6.99
//
compound: C=CC(=O)N1C[C@H]2CC[C@@H]1C[C@H]2c1ccc2ncnc(Nc3cc(C)c(Oc4cnc5c(c4)ncn5C)cc3F)c2n1
number: 6.66
//
compound: C=CC(=O)N1C[C@H]2CC[C@@H]1[C@H](c1ccc3ncnc(Nc4ccc(Oc5ccn6ncnc6c5)c(C)c4F)c3n1)C2
number: 8.01

---

Target: ErbB2 WT (Homo sapiens (Human), UniProt P04626)
Assay: ErbB Enzyme Assay (HTRF KinEASE-TK), Assay 2
Type: biochemical
Settings: ErbB2 WT enzyme assay
Method: The kinases were incubated with 250 nM TK-substrate biotin (CisBio, part of cat #62TKOPEC) at 1 mM ATP along with test compounds in a buffer consisting of 25 mM HEPES, pH 7.4, 10 mM MgCl2, 0.01% Triton X-100, and 2% DMSO in a volume of 8 μL. […] After 30-minute incubation at 22° C., the reaction was quenched by adding 8 μL of quench solution containing 62.5 nM Sa-XL665 and 0.25×TK-Ab-Cryptate in HTRF detection buffer (all from CisBio, part of cat #62TKOPEC).
pIC50: −log10 of the molar value.

compound: C=CC(=O)N1C[C@H]2CC[C@H](c3ccc4ncnc(Nc5ccc(Oc6ccn7ncnc7c6)c(C)c5F)c4n3)[C@H]2C1
test-target: ErbB2 WT (Homo sapiens (Human), UniProt P04626)
pIC50: 7.35
//
compound: C=CC(=O)N1C[C@@H]2CC[C@H]1CN2c1ccc2ncnc(Nc3ccc(Oc4cnc5c(c4)ncn5C)c(C)c3F)c2n1
test-target: ErbB2 WT (Homo sapiens (Human), UniProt P04626)
pIC50: 7.34
//
compound: C#CC1CN(c2ccc3ncnc(Nc4ccc(Oc5ccn6ncnc6c5)c(C)c4F)c3n2)CCN1C(=O)C=C (stereo not drawn)
test-target: ErbB2 WT (Homo sapiens (Human), UniProt P04626)
pIC50: 8.09
//
compound: C=CC(=O)N1CCCN(c2ccc3ncnc(Nc4ccc(Oc5ccn6ncnc6c5)c(Cl)c4F)c3n2)CC1(C)C
test-target: ErbB2 WT (Homo sapiens (Human), UniProt P04626)
pIC50: 7.87
//
compound: C=CC(=O)N1C[C@@H]2C[C@H]1C[C@H]2c1ccc2ncnc(Nc3cc(C)c(Oc4ccn5ncnc5c4)cc3F)c2n1
test-target: ErbB2 WT (Homo sapiens (Human), UniProt P04626)
pIC50: 7.26
//
compound: C=CC(=O)N1C[C@H]2C[C@@H]1CN(c1ccc3ncnc(Nc4ccc(Oc5ccn6ncnc6c5)c(Cl)c4F)c3n1)C2
test-target: ErbB2 WT (Homo sapiens (Human), UniProt P04626)
pIC50: 7.77

---

Target: ErbB2 WT (Homo sapiens (Human), UniProt P04626)
Assay: ErbB Enzyme Assay (HTRF KinEASE-TK), Assay 2
Format: biochemical
Settings: ErbB2 WT enzyme
pIC50: −log10 of the molar value.
Recorded pIC50 by entry

molecule: C=CC(=O)N1[C@@H]2CC[C@H]1CC(c1ccc3ncnc(Nc4cc(C)c(Oc5ccc6c(c5)ncn6C)cc4F)c3n1)C2 (mixture of isomers)
pIC50: 6.87
--
molecule: C=C(C)c1ccc2ncnc(Nc3ccc(Oc4ccc5c(c4)ncn5C)c(C)c3)c2n1
pIC50: 6.71
--
molecule: C=CC(=O)N1[C@@H]2CC[C@H]1C[C@@H](c1ccc3ncnc(Nc4ccc(Oc5cnc6c(c5)ncn6C)c(C)c4F)c3n1)C2
pIC50: 6.86
--
molecule: C=CC(=O)N1C[C@H]2C[C@@H]1CN2c1ccc2ncnc(Nc3ccc(Oc4ccc5c(c4)ncn5C)c(C)c3F)c2n1
pIC50: 7.09

---

Target: BCRP (Homo sapiens (Human))
Sequence (Q9UNQ0 whole entry): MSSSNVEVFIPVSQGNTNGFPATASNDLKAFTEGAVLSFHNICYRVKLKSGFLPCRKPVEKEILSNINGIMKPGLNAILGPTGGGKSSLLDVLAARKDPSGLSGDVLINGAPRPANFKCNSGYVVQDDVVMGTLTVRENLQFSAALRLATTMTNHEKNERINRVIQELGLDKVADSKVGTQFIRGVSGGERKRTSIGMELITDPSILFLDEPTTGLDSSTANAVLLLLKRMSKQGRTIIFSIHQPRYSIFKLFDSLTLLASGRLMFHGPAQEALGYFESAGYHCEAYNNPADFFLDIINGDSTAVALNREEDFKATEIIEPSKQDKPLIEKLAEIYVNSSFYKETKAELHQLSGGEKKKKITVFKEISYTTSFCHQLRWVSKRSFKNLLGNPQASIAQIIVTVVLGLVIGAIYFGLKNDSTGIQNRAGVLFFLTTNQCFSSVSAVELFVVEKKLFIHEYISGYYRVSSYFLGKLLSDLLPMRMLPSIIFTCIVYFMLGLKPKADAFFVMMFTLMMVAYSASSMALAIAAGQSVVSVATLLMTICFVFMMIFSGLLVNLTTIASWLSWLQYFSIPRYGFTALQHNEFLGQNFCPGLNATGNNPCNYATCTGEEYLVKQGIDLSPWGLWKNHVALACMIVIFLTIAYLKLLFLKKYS
Experiment: BCRP MDCKII efflux assay (Assay 7)
Type: in vitro ADME
Details: dog; efflux ratio Papp(B-A)/Papp(A-B), BCRP MDCKII cells; read-out: Assay 7 Pe Ratio
Protocol: Assay conditions included with and without the BCRP-specific inhibitor, KO143, at a concentration of 0.3 μM to ascertain the contribution of BCRP to the efflux value of the test compound. Final organic concentration in the assay was 1%.
One threshold, 5, splits the recorded efflux ratio at 2 h, 1 µM values: lower ones are Y, equal or higher ones are N.

molecule: C=CC(=O)N1CC(c2ccc3ncnc(Nc4ccc(Oc5ccc6c(c5)ncn6C)c(C)c4F)c3n2)CC1C (centres unmarked)
group: N

molecule: C=CC(=O)N1CCCN(c2ccc3ncnc(Nc4ccc(Oc5ccn6ncnc6c5)c(Cl)c4F)c3n2)CC1
group: N

molecule: C=CC(=O)N1CCCC(c2ccc3ncnc(Nc4cc(C)c(Oc5cnc6c(c5)ncn6C)cc4F)c3n2)CC1 (centres unmarked)
group: Y

molecule: C=CC(=O)N1C[C@H](c2ccc3ncnc(Nc4ccc(Oc5ccn6ncnc6c5)c(C)c4F)c3n2)C[C@@H]1C1CC1 (racemic)
group: Y

molecule: C=CC(=O)N1C[C@H]2CC[C@@H]1[C@H](c1ccc3ncnc(Nc4ccc(Oc5cnc6c(c5)ncn6C)c(C)c4F)c3n1)C2
group: Y

molecule: C=CC(=O)N1CCC(c2ccc3ncnc(Nc4ccc(Oc5ccc6c(c5)ncn6C)c(C)c4)c3n2)CC1
group: N

molecule: C=CC(=O)N1[C@@H]2CC[C@H]1C(c1ccc3ncnc(Nc4ccc(Oc5ccn6ncnc6c5)c(C)c4)c3n1)C2 (single isomer, unassigned)
group: Y

molecule: C=CC(=O)N1CCC(Oc2nc3c(Nc4ccc(Oc5ccc6cn(C)nc6c5)c(C)c4)ncnc3cc2OC)CC1
group: N

molecule: C=CC(=O)N1CCN(c2ccc3ncnc(Nc4cc(C)c(Oc5ccn6ncnc6c5)cc4F)c3n2)C[C@H]1CC
group: Y

molecule: C=CC(=O)N1CCN(c2ccc3ncnc(Nc4cc(C)c(Oc5ccc6c(c5)ncn6C)cc4F)c3n2)C[C@H]1C(C)C
group: Y

molecule: C=CC(=O)N1C[C@H]2C[C@@H]1[C@H](c1ccc3ncnc(Nc4ccc(Oc5ccn6ncnc6c5)c(C)c4)c3n1)C2
group: N

molecule: C=CC(=O)N1CCN(c2ccc3ncnc(Nc4ccc(Oc5cnc6c(c5)ncn6C)c(C)c4F)c3n2)C[C@@H]1C
group: N

molecule: C=CC(=O)N1CCN(c2ccc3ncnc(Nc4ccc(Oc5cnc6c(c5)ncn6C)c(C)c4)c3n2)CC1
group: N

molecule: C=CC(=O)N1[C@@H]2CC[C@H]1[C@H](c1ccc3ncnc(Nc4cc(C)c(Oc5ccc6c(c5)ncn6C)cc4F)c3n1)C2
group: Y

molecule: C=CC(=O)N1CCN(c2ccc3ncnc(Nc4ccc(Oc5cc(F)c6c(c5)ncn6C)c(C)c4)c3n2)CC1(C)C
group: N

molecule: C=CC(=O)N1CCN(c2ccc3ncnc(Nc4cc(Cl)c(Oc5ccn6ncnc6c5)cc4F)c3n2)CC1(C)C
group: Y

molecule: C=CC(=O)N1CC[C@@H]2C[C@H]1CN2c1ccc2ncnc(Nc3cc(C)c(Oc4ccn5ncnc5c4)cc3F)c2n1
group: Y

molecule: C=CC(=O)N1CCN(c2nc3c(Nc4ccc(Oc5ccn6ncnc6c5)c(C)c4F)ncnc3cc2OC)CC1
group: N

molecule: C=CC(=O)N1[C@H](C)CN(c2ccc3ncnc(Nc4cc(C)c(Oc5ccc6c(c5)ncn6C)cc4F)c3n2)C[C@@H]1C
group: N

molecule: C=CC(=O)N1CCN(c2ccc3ncnc(Nc4ccc(Oc5ccn6ncnc6c5)c(C)c4F)c3n2)CC1(C)C
group: Y

molecule: C=CC(=O)N1C[C@H]2C[C@@H]1CN(c1ccc3ncnc(Nc4cc(Cl)c(Oc5ccn6ncnc6c5)cc4F)c3n1)C2
group: N

molecule: C=CC(=O)N1C[C@H]2CC[C@@H]1C[C@@H]2c1ccc2ncnc(Nc3cc(C)c(Oc4cnc5c(c4)ncn5C)cc3F)c2n1
group: Y

molecule: C=CC(=O)N1CC[C@H](c2ccc3ncnc(Nc4ccc(Oc5ccc6c(c5)ncn6C)c(C)c4F)c3n2)CC(C)(C)C1 (racemic)
group: Y

molecule: C=CC(=O)N1C2CC1CN(c1ccc3ncnc(Nc4cc(C)c(Oc5ccc6c(c5)ncn6C)cc4F)c3n1)C2
group: N

molecule: C=CC(=O)N1C[C@H]2C[C@@H]1[C@H](c1ccc3ncnc(Nc4cc(C)c(Oc5ccc6c(c5)ncn6C)cc4F)c3n1)C2
group: Y

molecule: C=CC(=O)N1[C@H](C)CN(c2ccc3ncnc(Nc4ccc(Oc5ccn6ncnc6c5)c(Cl)c4F)c3n2)C[C@@H]1C
group: Y
